- systemUnderTest: OsSMF1 (Oryza sativa, UniProt Q6ZLB0 1-436)
- Sequence: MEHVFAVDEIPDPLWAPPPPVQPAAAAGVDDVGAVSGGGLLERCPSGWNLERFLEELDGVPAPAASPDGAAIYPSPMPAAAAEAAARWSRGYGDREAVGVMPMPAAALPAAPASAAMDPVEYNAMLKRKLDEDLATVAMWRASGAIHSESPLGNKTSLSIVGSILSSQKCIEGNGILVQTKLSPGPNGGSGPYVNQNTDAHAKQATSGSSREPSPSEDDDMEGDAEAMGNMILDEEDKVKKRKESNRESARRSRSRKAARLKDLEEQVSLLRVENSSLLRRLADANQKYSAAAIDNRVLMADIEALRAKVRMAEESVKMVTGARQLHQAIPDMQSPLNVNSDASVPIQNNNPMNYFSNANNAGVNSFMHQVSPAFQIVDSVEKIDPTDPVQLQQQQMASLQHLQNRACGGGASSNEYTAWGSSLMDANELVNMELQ
- experimentNotes: protein-binding microarray (RPBM); PBS, 2% BSA, 51.3 ng/ul salmon testes DNA, 50 uM zinc acetate, 200 nM TF, 25 C, 1 h; high values mean tight binding
- conditionDescription: protein: recombinant; tags: N-terminal polyhistidine and DsRed monomer fusion (pET32a); chain copies: 2; label: CyDye5-dUTP incorporated in the synthesized complementary strand; 3' TTTTT single-stranded linker to array surface; dsDNA, one strand shown
The full ranking holds about 39,000 sequences; the median of “fluorescence intensity (a.u.)” is about 4,300, and the highest 2% start at about 39,000. The list comes from a sample in which the highest values are over-represented; it also holds close analogues and randomly drawn sequences.
measuredEndpoint: binding signal

Query block: Using the record for `ACTAAATCCTCAACCACCTCATATGTTTATGTACCATCGACGGAGTCACCTAGTGCAG` , state its measured binding signal.
Result block: 3510 fluorescence intensity (a.u.)

Query block: Using the record for `TTCATAAAACTCCACCTGATCCGAATTACTCTACCAATAACGGAGTCACCTAGTGCAG` , state its measured binding signal.
Result block: 4490 fluorescence intensity (a.u.)

Query block: Using the record for `GCGGAGGAGGCAAGGAGATCAGGCGGCAGAGGAAAGGGGCCGGAGTCACCTAGTGCAG` , state its measured binding signal.
Result block: 3280 fluorescence intensity (a.u.)

Query block: Using the record for `CGCTGCGGGGAGTCGGCGCTTCGTCGGAGGCGGCGGGGCGCGGAGTCACCTAGTGCAG` , state its measured binding signal.
Result block: 3230 fluorescence intensity (a.u.)

Query block: Using the record for `TCTGTACCAAACTCAATTTTAGAATTCAGAGATCCAATAACGGAGTCACCTAGTGCAG` , state its measured binding signal.
Result block: 40000 fluorescence intensity (a.u.)

Query block: Using the record for `TCAAAGGGTTTCATAAATTTTATGTATATTTTACAAGATTCGGAGTCACCTAGTGCAG` , state its measured binding signal.
Result block: 5540 fluorescence intensity (a.u.)

Query block: Using the record for `GATAAATATAGGAATGTTTATAATACTAAATTAATTTAATCGGAGTCACCTAGTGCAG` , state its measured binding signal.
Result block: 28300 fluorescence intensity (a.u.)

Query block: Using the record for `GAGGACAGATCAAATGATTTTAATGACGAAACATGTGCTTCGGAGTCACCTAGTGCAG` , state its measured binding signal.
Result block: 4096 fluorescence intensity (a.u.)

Query block: Using the record for `CAGAAGGATATATGTTTTATAATTTATTCAAATACTAGATCGGAGTCACCTAGTGCAG` , state its measured binding signal.
Result block: 41400 fluorescence intensity (a.u.)

Query block: Using the record for `TAGAGAAAGCAAAGCACATACATAGGCTAATTCTCCTTTACGGAGTCACCTAGTGCAG` , state its measured binding signal.
Result block: 39200 fluorescence intensity (a.u.)

Query block: Using the record for `CGTATCTCATCTTTTCGTTTATACTTATACTTATCAGTCACGGAGTCACCTAGTGCAG` , state its measured binding signal.
Result block: 3230 fluorescence intensity (a.u.)

Query block: Using the record for `ATTTTGGTCAAATTTAAACTAATCTAAGTTTGACTAATTTCGGAGTCACCTAGTGCAG` , state its measured binding signal.
Result block: 8280 fluorescence intensity (a.u.)

Query block: Using the record for `CGATTTACTTCAAATTTTAGAGGATCAGATCCGACGAAATCGGAGTCACCTAGTGCAG` , state its measured binding signal.
Result block: 42900 fluorescence intensity (a.u.)

Query block: Using the record for `TGATCAAAGGGTTTTACTAAAGGAGTTATGGTCTAATTTTCGGAGTCACCTAGTGCAG` , state its measured binding signal.
Result block: 64900 fluorescence intensity (a.u.)

Query block: Using the record for `GCCGCTTCGATGCTGGCGGCAGGGTGGGGCGGGGATGCCTCGGAGTCACCTAGTGCAG` , state its measured binding signal.
Result block: 6170 fluorescence intensity (a.u.)

Query block: Using the record for `AGAGGGGCAGAGAGAGAGAGTGAGTGAGAAAGAGATCAAGCGGAGTCACCTAGTGCAG` , state its measured binding signal.
Result block: 56600 fluorescence intensity (a.u.)

Query block: Using the record for `CTGGTCGGCGCGGGCACGCGCTTGCGGAGGCTGGGGAGTCCGGAGTCACCTAGTGCAG` , state its measured binding signal.
Result block: 39700 fluorescence intensity (a.u.)

Query block: Using the record for `CAATTCCGACGAAATCCGGTCGGATTTCACGAAATTTCGACGGAGTCACCTAGTGCAG` , state its measured binding signal.
Result block: 20600 fluorescence intensity (a.u.)

Query block: Using the record for `CAAGTGGGGACAGCGCCACGTGCGCGCTCGCTCTTCTCCACGGAGTCACCTAGTGCAG` , state its measured binding signal.
Result block: 11500 fluorescence intensity (a.u.)

====

- systemUnderTest: OsSMF1 (Oryza sativa, UniProt Q6ZLB0 1-436)
- Sequence: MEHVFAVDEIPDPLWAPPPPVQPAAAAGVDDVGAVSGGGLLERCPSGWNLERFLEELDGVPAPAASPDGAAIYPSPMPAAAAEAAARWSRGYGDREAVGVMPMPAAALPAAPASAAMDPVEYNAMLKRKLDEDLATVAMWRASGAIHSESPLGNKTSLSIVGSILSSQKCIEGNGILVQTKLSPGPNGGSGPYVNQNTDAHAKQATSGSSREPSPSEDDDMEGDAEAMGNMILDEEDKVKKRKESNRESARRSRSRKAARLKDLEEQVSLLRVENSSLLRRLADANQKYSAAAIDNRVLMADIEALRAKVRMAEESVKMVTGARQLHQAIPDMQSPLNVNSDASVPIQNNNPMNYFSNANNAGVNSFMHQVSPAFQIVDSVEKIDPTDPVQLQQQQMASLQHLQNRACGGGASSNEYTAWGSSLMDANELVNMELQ
- experimentNotes: protein-binding microarray (RPBM); PBS, 2% BSA, 51.3 ng/ul salmon testes DNA, 50 uM zinc acetate, 200 nM TF, 25 C, 1 h; high values mean tight binding
- conditionDescription: protein: recombinant; tags: N-terminal polyhistidine and DsRed monomer fusion (pET32a); chain copies: 2; label: CyDye5-dUTP incorporated in the synthesized complementary strand; 3' TTTTT single-stranded linker to array surface; dsDNA, one strand shown
Over roughly 39,000 sequences, “fluorescence intensity (a.u.)” has its median near 4,300; the highest 2% begin near 39,000. The list comes from a sample in which the highest values are over-represented; it also holds close analogues and randomly drawn sequences.
Exercise: state measured binding signal for each of the sequences provided.

Query block: Find binding signal for `CACACCTGACACAACACTTACACATCATACCAGAAGAAAACGGAGTCACCTAGTGCAG` on OsSMF1 (Oryza sativa, UniProt Q6ZLB0 1-436) and write it down.
Result block: 3210 fluorescence intensity (a.u.)

Query block: Find binding signal for `ACTGCCATGGTTGCGGAGCAGGATGGTGACGTGGATCCCACGGAGTCACCTAGTGCAG` on OsSMF1 (Oryza sativa, UniProt Q6ZLB0 1-436) and write it down.
Result block: 17700 fluorescence intensity (a.u.)

Query block: Find binding signal for `GTTATCGTCATTACGTCAATACGTGTTTTCGAAAATAATTCGGAGTCACCTAGTGCAG` on OsSMF1 (Oryza sativa, UniProt Q6ZLB0 1-436) and write it down.
Result block: 4860 fluorescence intensity (a.u.)

Query block: Find binding signal for `TTAGTATTTAAAATTTAAAAGCAAAGTCATTCTCCTTCTACGGAGTCACCTAGTGCAG` on OsSMF1 (Oryza sativa, UniProt Q6ZLB0 1-436) and write it down.
Result block: 8610 fluorescence intensity (a.u.)

Query block: Find binding signal for `GCCGCCGCCGCCGCCGCCGCCGCTGTGTGTACGACTACGACGGAGTCACCTAGTGCAG` on OsSMF1 (Oryza sativa, UniProt Q6ZLB0 1-436) and write it down.
Result block: 3250 fluorescence intensity (a.u.)

Query block: Find binding signal for `TAAAGCTTTTATGAATGAATAGCCTCGCTGGCAAGTGGGCCGGAGTCACCTAGTGCAG` on OsSMF1 (Oryza sativa, UniProt Q6ZLB0 1-436) and write it down.
Result block: 3560 fluorescence intensity (a.u.)

Query block: Find binding signal for `TTAGTTTTATATAAAATGTGTCACATGATAATAGTAGTACCGGAGTCACCTAGTGCAG` on OsSMF1 (Oryza sativa, UniProt Q6ZLB0 1-436) and write it down.
Result block: 3870 fluorescence intensity (a.u.)

Query block: Find binding signal for `GCCCTCCCTGTCATCCCCGTCACCCATCCTGCCTGCTTTTCGGAGTCACCTAGTGCAG` on OsSMF1 (Oryza sativa, UniProt Q6ZLB0 1-436) and write it down.
Result block: 8530 fluorescence intensity (a.u.)

Query block: Find binding signal for `AGATCACACACAACACGCACATCACGAACCGGACCAAACCCGGAGTCACCTAGTGCAG` on OsSMF1 (Oryza sativa, UniProt Q6ZLB0 1-436) and write it down.
Result block: 3660 fluorescence intensity (a.u.)

Query block: Find binding signal for `CTTCGGCCTTAGCTCCAAATCCGATGTAAATTTACCAAATCGGAGTCACCTAGTGCAG` on OsSMF1 (Oryza sativa, UniProt Q6ZLB0 1-436) and write it down.
Result block: 61700 fluorescence intensity (a.u.)

Query block: Find binding signal for `CGTAGGCTCGTCGCGGCCACGTACGCCATCCCGAGCTCGGCGGAGTCACCTAGTGCAG` on OsSMF1 (Oryza sativa, UniProt Q6ZLB0 1-436) and write it down.
Result block: 6280 fluorescence intensity (a.u.)

Query block: Find binding signal for `GGTTGAGTGACGCGCTATTTCTGGTATTGCGTATGAAGGGCGGAGTCACCTAGTGCAG` on OsSMF1 (Oryza sativa, UniProt Q6ZLB0 1-436) and write it down.
Result block: 3520 fluorescence intensity (a.u.)

Query block: Find binding signal for `GGGCCAAATTTTATCGAGAAGATTAGACACGAGTATGGGCCGGAGTCACCTAGTGCAG` on OsSMF1 (Oryza sativa, UniProt Q6ZLB0 1-436) and write it down.
Result block: 47600 fluorescence intensity (a.u.)

Query block: Find binding signal for `CTCCAAATTAGTATCCAAACATCCGATGTGACATGGACTTCGGAGTCACCTAGTGCAG` on OsSMF1 (Oryza sativa, UniProt Q6ZLB0 1-436) and write it down.
Result block: 4370 fluorescence intensity (a.u.)

Query block: Find binding signal for `GCCACGCCCAACCCGTGTCACTGTCACGTGGGCCCCACCCCGGAGTCACCTAGTGCAG` on OsSMF1 (Oryza sativa, UniProt Q6ZLB0 1-436) and write it down.
Result block: 7720 fluorescence intensity (a.u.)

Query block: Find binding signal for `TTGGCTGGAGCATCGTCACTACTATTCGACACTAAGGTGTCGGAGTCACCTAGTGCAG` on OsSMF1 (Oryza sativa, UniProt Q6ZLB0 1-436) and write it down.
Result block: 3240 fluorescence intensity (a.u.)

Query block: Find binding signal for `TGCGATTTTAGACGATTATCGTGCGATTATCACGGTTATCCGGAGTCACCTAGTGCAG` on OsSMF1 (Oryza sativa, UniProt Q6ZLB0 1-436) and write it down.
Result block: 3360 fluorescence intensity (a.u.)

Query block: Find binding signal for `TTCGGCGCAAATTTCTAATCATGATGTAATATAATTAGCTCGGAGTCACCTAGTGCAG` on OsSMF1 (Oryza sativa, UniProt Q6ZLB0 1-436) and write it down.
Result block: 3270 fluorescence intensity (a.u.)

Query block: Find binding signal for `AGCGAGACACTTTGAGATTTAGTATGAGTCATGTAAATTACGGAGTCACCTAGTGCAG` on OsSMF1 (Oryza sativa, UniProt Q6ZLB0 1-436) and write it down.
Result block: 7830 fluorescence intensity (a.u.)
